- Tested on: Microsporum gypseum MW766983
- Conditions Used: 24 h
No end group written: not given here.
Below, each entry is listed with its recorded MBC/MFC.
Value Type: MBC/MFC (µg/mL)

>>> df
                          substance  numeric_value
0  AAVTRRILCWFA-NH2 [Allomyrinasin]            0.5
1           VAEARQGSFSY [Pinipesin]              2
2    GLLSGILGAGKKIVF [Nigrocin-HLM]              1
3           KWAVRIIRKFIKGFIS [Hs02]            0.5
4           GLTRLFSVIK [Andricin B]              2
